# method summary: Absorption and fluorescence spectra of luciferins
# Assay type: physicochemical
# test settings: 100 mM HEPES pH 8.0, 25 °C
Listing of entries alongside the reported Absorption (λmax).
Report the value in nm with no unit label.

Solved entries:
molecule: Cc1cc2nc(C3=N[C@@H](C(=O)O)CS3)sc2c(C)c1O
Absorption (λmax) (nm): 334

molecule: Cc1cc(O)c(C)c2sc(C3=N[C@@H](C(=O)O)CS3)nc12
Absorption (λmax) (nm): 330

molecule: COc1cc2nc(C3=N[C@@H](C(=O)O)CS3)sc2c(OC)c1O
Absorption (λmax) (nm): 412

molecule: Cc1c(O)c2ccccc2c2nc(C3=N[C@@H](C(=O)O)CS3)sc12
Absorption (λmax) (nm): 437

molecule: Cc1cc2nc(C3=N[C@@H](C(=O)O)CS3)sc2cc1O
Absorption (λmax) (nm): 323

Consider the molecule O=C(O)[C@H]1CSC(c2nc3ccc(O)cc3s2)=N1 [Compound 2a, D-luciferin, reference compound] and give its measured Absorption (λmax).
327
